# TEST SUMMARY: wn = mass fraction of the nth substance listed
# CONDITION: 328.15 K; 101 kPa; Liquid; Concentric cylinders viscometry; w1 = 0.25
± gives the expanded uncertainty stated by the source.
READOUT NAME: viscosity
Returns: string containing the numeric result and its unit.

Some solved entries appear below for comparison.
- COMPOUND: "CC(O)CN(CC(C)O)CC(C)O (centres undefined) [triisopropanolamine] + O"
  viscosity: "1.224 ± 0.011 mPa·s"
- COMPOUND: "CC(O)CN (centres undefined) [1-amino-2-propanol] + O"
  viscosity: "1.102 ± 0.008 mPa·s"
- COMPOUND: "CC(O)CNCC(C)O (centres undefined) [N-(2-hydroxypropyl)-2-hydroxy-1-propanamine] + O"
  viscosity: "1.278 ± 0.0087 mPa·s"

Next compound, viscosity to be filled in.
For record OCCNCCO [diethanolamine] + O the listed viscosity is 1.141 ± 0.0075 mPa·s
